# inhibition listing for each entry below
# tgt: Leukotriene A-4 hydrolase (Homo sapiens) (UniProt P09960)
# Sequence (P09960 whole entry): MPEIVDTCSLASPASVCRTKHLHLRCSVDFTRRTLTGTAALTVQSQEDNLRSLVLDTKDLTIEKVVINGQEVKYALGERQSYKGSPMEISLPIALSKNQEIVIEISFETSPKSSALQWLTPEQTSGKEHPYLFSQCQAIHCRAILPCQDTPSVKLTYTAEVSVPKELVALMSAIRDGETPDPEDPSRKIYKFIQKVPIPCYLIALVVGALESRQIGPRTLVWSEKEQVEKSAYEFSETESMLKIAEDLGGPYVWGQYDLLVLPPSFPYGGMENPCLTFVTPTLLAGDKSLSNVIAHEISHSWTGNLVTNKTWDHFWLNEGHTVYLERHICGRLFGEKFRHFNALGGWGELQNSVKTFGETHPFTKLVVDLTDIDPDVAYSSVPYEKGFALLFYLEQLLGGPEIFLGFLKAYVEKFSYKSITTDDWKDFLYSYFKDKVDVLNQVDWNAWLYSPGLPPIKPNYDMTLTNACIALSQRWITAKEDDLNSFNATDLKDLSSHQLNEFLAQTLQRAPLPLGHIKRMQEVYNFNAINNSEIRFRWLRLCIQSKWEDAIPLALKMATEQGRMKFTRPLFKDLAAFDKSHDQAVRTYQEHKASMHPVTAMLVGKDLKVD
# test.method.notes: Inhibition of epoxide hydrolase activity of human recombinant leukotriene A4 hydrolase expressed in Escherichia coli assessed as LTB4 production at 100 uM by RP-HPLC

molecule	tgt	measure	measurement
N#C/C(=C(/O)c1ccc(Cl)c([N+](=O)[O-])c1)c1nc2ccccc2s1	Leukotriene A-4 hydrolase (Homo sapiens) (UniProt P09960)	inhibition	< 50%
O=c1/c(=C/c2cc(I)c(O)c([N+](=O)[O-])c2)sc2nc3ccccc3n12	Leukotriene A-4 hydrolase (Homo sapiens) (UniProt P09960)	inhibition	< 50%
O=C(CSc1nnnn1-c1ccc(Cl)c(C(=O)O)c1)Nc1ccc(F)cc1	Leukotriene A-4 hydrolase (Homo sapiens) (UniProt P09960)	inhibition	< 50%
COC(=O)c1ccc(NC(=S)NC(=O)c2cc(-c3ccccc3)nc3ccccc23)cc1	Leukotriene A-4 hydrolase (Homo sapiens) (UniProt P09960)	inhibition	< 50%
O=C1c2ccc([N+](=O)[O-])cc2C(=O)N1CNc1ccc([N+](=O)[O-])cc1	Leukotriene A-4 hydrolase (Homo sapiens) (UniProt P09960)	inhibition	< 50%

Req: Missing value: inhibition, Leukotriene A-4 hydrolase (Homo sapiens) (UniProt P09960), entry c1ccc2c(c1)OCC(c1nn3c(Cn4nnc5ccccc54)nnc3s1)O2 (stereo not given) . Fill in?
Resp: < 50%

Req: Can you look up inhibition on Leukotriene A-4 hydrolase (Homo sapiens) (UniProt P09960) for Cc1ccc2cccc(OC(=O)c3cccc([N+](=O)[O-])c3)c2n1 ?
Resp: < 50%

Req: Give inhibition (Leukotriene A-4 hydrolase (Homo sapiens) (UniProt P09960)) of the following molecule: O=[N+]([O-])c1ccc(CSc2cc3ccccc3[nH]2)c([N+](=O)[O-])c1
Resp: < 50%

---

# tgt: Prostaglandin E synthase (Homo sapiens, UniProt O14684)
# Sequence (O14684 whole entry): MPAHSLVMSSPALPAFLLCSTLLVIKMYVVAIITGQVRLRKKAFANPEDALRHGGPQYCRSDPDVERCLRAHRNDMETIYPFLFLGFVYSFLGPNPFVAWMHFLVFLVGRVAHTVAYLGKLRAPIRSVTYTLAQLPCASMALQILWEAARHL
# test.method.notes: Inhibition of mPGES1 in LPS-stimulated human whole blood assessed as reduction in PGE2 production incubated for 24 hrs at 37 degC by enzyme immunoassay
In this section we review reported pIC50 values for a set of molecules.
The scale used: pIC50 is minus the common logarithm of the concentration in molar units.

Answered cases to consult:
smiles.code	measurement
O=C(Oc1cccc2ccccc12)c1cc([N+](=O)[O-])cc([N+](=O)[O-])c1	5.12
Cc1cccc(N=C2NS(=O)(=O)c3cc([N+](=O)[O-])ccc32)c1	4.81

--- query ---
Req: # pIC50 lookup, item CC1(C)Cc2c(-c3ccccc3)c(-c3ccc(Cl)cc3)c(CC(=O)O)n2C1
Resp: 5.41

---

# tgt: Polyunsaturated fatty acid 5-lipoxygenase (Homo sapiens)
# Sequence (P09917 whole entry): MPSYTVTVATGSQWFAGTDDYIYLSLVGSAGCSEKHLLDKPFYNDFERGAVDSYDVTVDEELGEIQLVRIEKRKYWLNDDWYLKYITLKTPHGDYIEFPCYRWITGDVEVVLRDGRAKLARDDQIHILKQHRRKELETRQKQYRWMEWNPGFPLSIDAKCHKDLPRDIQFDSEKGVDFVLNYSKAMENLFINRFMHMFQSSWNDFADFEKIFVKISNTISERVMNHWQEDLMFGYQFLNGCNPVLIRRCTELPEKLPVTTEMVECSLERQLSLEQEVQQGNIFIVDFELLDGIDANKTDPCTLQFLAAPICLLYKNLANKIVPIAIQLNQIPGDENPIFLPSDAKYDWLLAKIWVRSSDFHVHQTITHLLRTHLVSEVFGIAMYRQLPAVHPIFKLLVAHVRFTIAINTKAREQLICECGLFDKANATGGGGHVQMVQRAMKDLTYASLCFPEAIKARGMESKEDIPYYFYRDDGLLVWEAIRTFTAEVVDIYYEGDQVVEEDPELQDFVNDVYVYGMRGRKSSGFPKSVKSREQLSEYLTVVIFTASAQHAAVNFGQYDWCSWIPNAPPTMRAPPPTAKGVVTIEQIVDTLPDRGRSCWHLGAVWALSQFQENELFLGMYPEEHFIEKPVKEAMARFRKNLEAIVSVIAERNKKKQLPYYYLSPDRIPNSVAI
# test.method.notes: Inhibition of human 5-LOX in A23187-induced human whole blood assessed as reduction in LTB4 production pre-incubated for 20 mins before A23187 addition by enzyme immunoassay
pIC50: −log10 of the molar value.
measure: pIC50

molecule	pIC50
O=C(NCCNC(=O)c1ccc([N+](=O)[O-])o1)c1ccc2ccccc2n1	< 4.00
Cc1cccc(N=C2NS(=O)(=O)c3cc([N+](=O)[O-])ccc32)c1	5.01
O=[N+]([O-])c1ccc(Cl)c(S(=O)(=O)n2cnc3ccccc32)c1	5.09
Cc1nn(Cc2ccc(F)cc2)c(C)c1NC(=O)C1CC(c2cccc(Br)c2)=NO1 (stereo not given)	< 4.00
O=C1OC(c2ccc3ccccc3c2)=N/C1=C\c1ccc(Cl)cc1	< 4.00

Req: Give the measured pIC50 of C/C(NCc1ccc(Cl)c(Cl)c1)=C1\C(=O)N(c2nc3ccccc3s2)N=C1C(F)(F)F .
Resp: < 4.00

Req: Which measured pIC50 value corresponds to O=C(O/N=C/c1ccc(Br)cc1)c1cc([N+](=O)[O-])cc([N+](=O)[O-])c1 ?
Resp: 4.44

Req: Please look up its pIC50: COc1ccc(-c2nnc3sc(/C=C/c4ccccc4OC)nn23)cc1
Resp: < 4.00

All figures here come from ChEMBL document CHEMBL2163330.
